- ASSAY: MMV: MTT Cytotoxicity Assay Day 7 pi of Assay #11 (NO washout), U87-CD4-CXCR4 cells, % cell death @ 5mM compound
- Assay type: toxicity, cell-based
- MEASUREMENT_PARAMETERS: human, u87-cd4-cxcr4, 5000 µM
Entries whose % Cell Death is below 20 take TRUE; entries at or above 20 take FALSE.

>>> df
                                   compound  assigned_label
0           CCOc1ccc(CCNC(=O)c2cccs2)cc1OCC            TRUE
1            CCCCc1c(CCC)c(=N)c2ccccc2n1C.I            TRUE
2  O=[N+]([O-])c1ccc(C=NNc2nc3ccccc3[nH]2)cc1           FALSE
3  COc1ccc(CCN2CCC(CN(C)Cc3cnn(-c4ccccc4)c3)CC2)cc1           FALSE
4    CN(C)CCCNCc1ccc(-c2ccc(F)c(Cl)c2)o1.Cl            TRUE

Identify whether the compound CC(C)(C)c1ccc(C(=O)Nc2nc3ccccc3s2)cc1 records % Cell Death below 20.
TRUE

Regarding Cc1ccccc1OCCSc1nc2ccc(NC(=O)c3ccccc3)cc2s1 , kindly confirm whether its % Cell Death is beneath 20.
FALSE

Strictly below 20 in % Cell Death? COc1ccc(-n2ccnc2SCC(=O)Nc2cc(C)ccc2C)c(OC)c1
FALSE

Lab log: compare recorded % Cell Death with 20; is it strictly lower for Cc1ccc(CN2CCC(C(=O)Nc3ccc(-c4cc5ccccc5[nH]4)cc3)CC2)o1 ?
FALSE

Field: below-cutoff. Rule: recorded % Cell Death strictly less than 20. Subject: COCCn1c(C)nc2ccccc2c1=O
FALSE

---

- Tested on: Human immunodeficiency virus 1
- ASSAY: MMV: HIV CXCR4-tropic env NL4-3 pseudovirus assay produces luciferase signal in lieu of replicating viral particles Day 3 pi, U87-CD4-CXCR4, % inhibition at 5 mM compound
- Type: functional
- Set-up: dose or concentration left out as unconfirmed
- MEASUREMENT_PARAMETERS: Human immunodeficiency virus 1, NL4-3, U87.CD4.CXCR4, 72 h
inhibition for assorted molecules

Answer with reported inhibition of Cc1ccc(NC(=O)Nc2cccc(Cl)c2)cc1F
0%

Identify the reported inhibition for the following entry. CCCc1cc(O)c2c3c(c(=O)oc2c1)CN(C)CC3
4%

Please supply the value of reported inhibition for the item FC(F)(F)c1cccc(Nc2nc(-c3ccccc3)nc3ncccc23)c1
9%

---

- ASSAY: MMV: MTT Cytotoxicity Assay Day 3 pi, U87-CD4-CCR5 cells, % cell death @ 5mM compound
- Format: toxicity, cell-based
- MEASUREMENT_PARAMETERS: human, u87-cd4-ccr5, 5000 µM
// reported % Cell Death per item
// return a plain number; no unit text

Study these solved cases before continuing.
                                   compound  recorded_endpoint  assay_result
0      CCN(CC)CCNc1ncnc2c1[nH]c1ccc(Cl)cc12       % Cell Death            15
1  Oc1c(CN2CCN(c3ccccc3F)CC2)cc(Br)c2cccnc12       % Cell Death            43
2  O=C1CC(O)(C(F)(F)C(F)(F)F)Oc2ccccc21 (stereo not given)       % Cell Death           -14
3  CCCCc1ccc(NS(=O)(=O)c2cc3c4c(c2)CCN4C(=O)CC3)cc1       % Cell Death             6
4  Cc1ccc(-c2cc3c(SCC(=O)Nc4cc(C(F)(F)F)ccc4Cl)nccn3n2)cc1       % Cell Death            18

Provide measured % Cell Death value, entry: CC(=O)NCCc1nc2ccccc2n1Cc1ccc(C(C)C)cc1
-2

Give the value of % Cell Death reported for the following: Cc1c(C)n(CC(O)CNC2CCCCC2C)c2ccccc12 (stereo not given)
-17

Tell me % Cell Death reported for CCCCc1c(CCC)c(=N)c2ccccc2n1C.I
-13

Quick one: give measured % Cell Death for CCCCCCn1c(=N)n(CC(O)COc2cccc(C)c2)c2ccccc21.Cl (stereo not given)
43

For CCOc1ccc(N2C(N)=NC(N)=NC2(C)C)cc1.Cl , write its % Cell Death.
56
